Data credit: ChEMBL document CHEMBL1149774

- Tested on: RXF 393
- METHOD DESCRIPTION: Growth inhibition of human RXF393 cells after 48 hrs by SRB staining method
- Assay type: functional
- SETUP CONDITIONS: RXF 393, 48 h, read-out: pTGI (converted)
PROPERTY LABEL: TGI

Recorded TGI for COc1cc(Nc2nc3cc(N)cc(N)c3nc2-c2ccccc2)cc(OC)c1OC , please?
34.7 µM

Query (molecule): COc1cc(Nc2nc3cc(N)cc(N)c3nc2-c2ccccc2)cc(OC)c1 ; field requested: TGI
18.6 µM

If you can, please state the reported TGI value of Nc1cc(N)c2nc(-c3ccccc3)c(Nc3ccc(Cl)c(Cl)c3)nc2c1 .
30.9 µM

Given COc1ccc(Nc2nc3cc(N)cc(N)c3nc2-c2ccccc2)cc1 , state its recorded TGI.
24 µM

Sample Nc1cc(N)c2nc(-c3ccccc3)c(Nc3ccc(F)cc3)nc2c1 — what was its TGI?
28.8 µM

Fill blank: measured TGI of the molecule CCOC(=O)CCC(NC(=O)c1ccc(Nc2nc3cc(N)cc(N)c3nc2-c2ccccc2)cc1)C(=O)OCC (configuration not stated) is ____.
85.1 µM

Which value of TGI has been reported for COc1ccc(Nc2nc3cc(N)cc(N)c3nc2-c2ccccc2)cc1OC in the records?
49 µM

----------
- System: KM12
- METHOD DESCRIPTION: Growth inhibition of human KM12 cells after 48 hrs by SRB staining method
- Type: functional
- SETUP CONDITIONS: KM12, 48 h
PROPERTY LABEL: LC50 (µM)
Expressed in µM, but write only the number.

Quick one: LC50 for Nc1cc(N)c2nc(-c3ccccc3)c(Nc3ccc(Cl)c(Cl)c3)nc2c1 ?
87.1

Quick one: LC50 of COc1cc(Nc2nc3cc(N)cc(N)c3nc2-c2ccccc2)cc(OC)c1 ?
72.4

Any idea what its LC50 is? The molecule is COc1ccc(Nc2nc3cc(N)cc(N)c3nc2-c2ccccc2)cc1OC
69.2

Could you share which LC50 value was measured for COc1ccc(Nc2nc3cc(N)cc(N)c3nc2-c2ccccc2)cc1 ?
60.3

Recorded LC50 for COc1cc(Nc2nc3cc(N)cc(N)c3nc2-c2ccccc2)cc(OC)c1OC , please?
81.3

----------
Give GI50 for every item shown.
- System: M14
- METHOD DESCRIPTION: Growth inhibition of human M14 cells after 48 hrs by SRB staining method
- Format: functional
- SETUP CONDITIONS: M14, 48 h
Unit µM implied. Number only.

Param item = COc1cc(Nc2nc3cc(N)cc(N)c3nc2-c2ccccc2)cc(OC)c1OC ; retrieve measured GI50.
19.5

Requested read-out: GI50. Entry: Nc1cc(N)c2nc(-c3ccccc3)c(Nc3ccc(F)cc3)nc2c1
16.2

Give the measured GI50 of COc1ccc(Nc2nc3cc(N)cc(N)c3nc2-c2ccccc2)cc1OC .
20.9

So what does the record say about GI50 for COc1ccc(Nc2nc3cc(N)cc(N)c3nc2-c2ccccc2)cc1 ?
17.8

Sample CCOC(=O)CCC(NC(=O)c1ccc(Nc2nc3cc(N)cc(N)c3nc2-c2ccccc2)cc1)C(=O)OCC (configuration not stated) — what was its GI50?
2.51

Look at this compound and give its reported GI50. COc1cc(Nc2nc3cc(N)cc(N)c3nc2-c2ccccc2)cc(OC)c1
14.1

Return reported GI50; argument: Nc1cc(N)c2nc(-c3ccccc3)c(Nc3ccc(Cl)c(Cl)c3)nc2c1
14.8
